Source: patent US20080045482A1

test system: B/1060/03; assay type: cell-based, human influenza B virus
readout_label: pIC50
Give bare numbers, as −log10 of the molar value.

Challenge: Which pIC50 value belongs to O=C(O)P(O)(O)=S ?
Response given: 4.04
